Would you mind telling me the reported selectivity ratio of each entry?
Measurement protocol: Therapeutic index, ratio of IC50 for human TZM-b1 cells to EC50 for HIV1 RTMDR1
Assay type: cell-based
Condition info: read-out: TI
One number for each entry.

Reference set, count: 4
Structure | selectivity ratio
CC1(C)Oc2ccc3c(=O)cc(CC#N)oc3c2[C@@H](OC(=O)[C@@]23CC[C@@](C)(C(=O)O2)C3(C)C)[C@H]1OC(=O)[C@@]12CC[C@@](C)(C(=O)O1)C2(C)C | 12
CCc1cc(=O)c2ccc3c(c2o1)[C@@H](OC(=O)[C@@]12CC[C@@](C)(C(=O)O1)C2(C)C)[C@@H](OC(=O)[C@@]12CC[C@@](C)(C(=O)O1)C2(C)C)C(C)(C)O3 | 60
CCc1cc(=O)c2c(C)cc3c(c2o1)[C@@H](OC(=O)[C@@]12CC[C@@](C)(C(=O)O1)C2(C)C)[C@@H](OC(=O)[C@@]12CC[C@@](C)(C(=O)O1)C2(C)C)C(C)(C)O3 | 200
Cc1oc2c3c(ccc2c(=O)c1I)OC(C)(C)[C@H](OC(=O)[C@@]12CC[C@@](C)(C(=O)O1)C2(C)C)[C@@H]3OC(=O)[C@@]12CC[C@@](C)(C(=O)O1)C2(C)C | 8

# batch: return selectivity ratio for each of the 5 compounds below
1. Cc1cc(=O)c2c(C)cc3c(c2o1)[C@@H](OC(=O)[C@@]12CC[C@@](C)(C(=O)O1)C2(C)C)[C@@H](OC(=O)[C@@]12CC[C@@](C)(C(=O)O1)C2(C)C)C(C)(C)O3
2. CC1(C)Oc2ccc3c(=O)cc(CBr)oc3c2[C@@H](OC(=O)[C@@]23CC[C@@](C)(C(=O)O2)C3(C)C)[C@H]1OC(=O)[C@@]12CC[C@@](C)(C(=O)O1)C2(C)C
3. Cc1cc(=O)c2c(CBr)cc3c(c2o1)[C@@H](OC(=O)[C@@]12CC[C@@](C)(C(=O)O1)C2(C)C)[C@@H](OC(=O)[C@@]12CC[C@@](C)(C(=O)O1)C2(C)C)C(C)(C)O3
4. Cc1cc(=O)c2ccc3c(c2o1)[C@@H](OC(=O)[C@@]12CC[C@@](C)(C(=O)O1)C2(C)C)[C@@H](OC(=O)[C@@]12CC[C@@](C)(C(=O)O1)C2(C)C)C(C)(C)O3
5. Cc1oc2c3c(ccc2c(=O)c1N)OC(C)(C)[C@H](OC(=O)[C@@]12CC[C@@](C)(C(=O)O1)C2(C)C)[C@@H]3OC(=O)[C@@]12CC[C@@](C)(C(=O)O1)C2(C)C

1: 310; 2: 3; 3: 7.4; 4: 58; 5: 68

====

Measurement protocol: Therapeutic index, ratio of IC50 for human TZM-b1 cells to EC50 for HIV1 NL4-3
Type: cell-based
Condition info: read-out: TI
Observable: selectivity ratio
One number for each entry.

Reference set, count: 3
Structure | selectivity ratio
Cc1cc(=O)c2ccc3c(c2o1)[C@@H](OC(=O)[C@@]12CC[C@@](C)(C(=O)O1)C2(C)C)[C@@H](OC(=O)[C@@]12CC[C@@](C)(C(=O)O1)C2(C)C)C(C)(C)O3 | 110
Cc1oc2c3c(ccc2c(=O)c1Br)OC(C)(C)[C@H](OC(=O)[C@@]12CC[C@@](C)(C(=O)O1)C2(C)C)[C@@H]3OC(=O)[C@@]12CC[C@@](C)(C(=O)O1)C2(C)C | 14
CC(Br)(Br)c1cc(=O)c2ccc3c(c2o1)[C@@H](OC(=O)[C@@]12CC[C@@](C)(C(=O)O1)C2(C)C)[C@@H](OC(=O)[C@@]12CC[C@@](C)(C(=O)O1)C2(C)C)C(C)(C)O3 | 1.8

# batch: return selectivity ratio for each of the 2 compounds below
1. CC1(C)Oc2ccc3c(=O)cc(CC#N)oc3c2[C@@H](OC(=O)[C@@]23CC[C@@](C)(C(=O)O2)C3(C)C)[C@H]1OC(=O)[C@@]12CC[C@@](C)(C(=O)O1)C2(C)C
2. Cc1cc(=O)c2c(C)cc3c(c2o1)[C@@H](OC(=O)[C@@]12CC[C@@](C)(C(=O)O1)C2(C)C)[C@@H](OC(=O)[C@@]12CC[C@@](C)(C(=O)O1)C2(C)C)C(C)(C)O3

1. 9.4
2. 420

====

System: Human immunodeficiency virus 1
Measurement protocol: Antiviral activity against HIV1 RTMDR1 in human TZM-b1 cells after 48 hrs by luciferase reporter gene assay
Type: functional, organism-based
Condition info: Human immunodeficiency virus 1, RTMDR1, TZM-b1, 48 h
Would you mind telling me the reported pEC50 of each entry?
One number for each entry, as −log10 of the molar value.

Reference set, count: 2
Structure | pEC50
Cc1c(C#N)oc2c3c(ccc2c1=O)OC(C)(C)[C@H](OC(=O)[C@@]12CC[C@@](C)(C(=O)O1)C2(C)C)[C@@H]3OC(=O)[C@@]12CC[C@@](C)(C(=O)O1)C2(C)C | 5.72
Cc1cc(=O)c2ccc3c(c2o1)[C@@H](OC(=O)[C@@]12CC[C@@](C)(C(=O)O1)C2(C)C)[C@@H](OC(=O)[C@@]12CC[C@@](C)(C(=O)O1)C2(C)C)C(C)(C)O3 | 6.72

Here is the next item to consider.
Fill in the recorded pEC50 for this compound, with Human immunodeficiency virus 1 as test system: "CC1(C)Oc2ccc3c(=O)cc(CC#N)oc3c2[C@@H](OC(=O)[C@@]23CC[C@@](C)(C(=O)O2)C3(C)C)[C@H]1OC(=O)[C@@]12CC[C@@](C)(C(=O)O1)C2(C)C" 5.85

====

Measurement protocol: Therapeutic index, ratio of CC50 for human H9 cells to EC50 for HIV1 RTMDR1
Assay type: cell-based
Condition info: read-out: TI
Observable: selectivity ratio
One number for each entry.

# query: selectivity ratio of entry "CCc1cc(=O)c2ccc3c(c2o1)[C@@H](OC(=O)[C@@]12CC[C@@](C)(C(=O)O1)C2(C)C)[C@@H](OC(=O)[C@@]12CC[C@@](C)(C(=O)O1)C2(C)C)C(C)(C)O3" 60

====

Measurement protocol: Therapeutic index, ratio of IC50 for human TZM-b1 cells to EC50 for HIV1 NL4-3
Assay type: cell-based
Condition info: read-out: TI
Would you mind telling me the reported selectivity ratio of each entry?
Answers are plain numbers.

Structure | Recorded value
CC1(C)Oc2ccc3c(=O)cc(CBr)oc3c2[C@@H](OC(=O)[C@@]23CC[C@@](C)(C(=O)O2)C3(C)C)[C@H]1OC(=O)[C@@]12CC[C@@](C)(C(=O)O1)C2(C)C | 3

Here is the next item to consider.
# query: selectivity ratio of entry "CCc1cc(=O)c2ccc3c(c2o1)[C@@H](OC(=O)[C@@]12CC[C@@](C)(C(=O)O1)C2(C)C)[C@@H](OC(=O)[C@@]12CC[C@@](C)(C(=O)O1)C2(C)C)C(C)(C)O3" 94

====

Measurement protocol: Therapeutic index, ratio of IC50 for human TZM-b1 cells to EC50 for HIV1 NL4-3
Format: cell-based
Condition info: read-out: TI
Observable: selectivity ratio

Reference set, count: 2
Structure | selectivity ratio
CCc1cc(=O)c2c(C)cc3c(c2o1)[C@@H](OC(=O)[C@@]12CC[C@@](C)(C(=O)O1)C2(C)C)[C@@H](OC(=O)[C@@]12CC[C@@](C)(C(=O)O1)C2(C)C)C(C)(C)O3 | 110
CC1(C)Oc2ccc3c(=O)cc(CN4CCOCC4)oc3c2[C@@H](OC(=O)[C@@]23CC[C@@](C)(C(=O)O2)C3(C)C)[C@H]1OC(=O)[C@@]12CC[C@@](C)(C(=O)O1)C2(C)C | > 14

# batch: return selectivity ratio for each of the 3 molecules below
1. Cc1oc2c3c(cc(C)c2c(=O)c1Br)OC(C)(C)[C@H](OC(=O)[C@@]12CC[C@@](C)(C(=O)O1)C2(C)C)[C@@H]3OC(=O)[C@@]12CC[C@@](C)(C(=O)O1)C2(C)C
2. CNc1c(C)oc2c3c(ccc2c1=O)OC(C)(C)[C@H](OC(=O)[C@@]12CC[C@@](C)(C(=O)O1)C2(C)C)[C@@H]3OC(=O)[C@@]12CC[C@@](C)(C(=O)O1)C2(C)C
3. CC1(C)Oc2ccc3c(=O)cc(CNCc4ccncc4)oc3c2[C@@H](OC(=O)[C@@]23CC[C@@](C)(C(=O)O2)C3(C)C)[C@H]1OC(=O)[C@@]12CC[C@@](C)(C(=O)O1)C2(C)C

["> 24", "> 200", "> 1.3"]

====

Test system: Human immunodeficiency virus 1
Measurement protocol: Antiviral activity against HIV1 RTMDR1 in human TZM-b1 cells after 48 hrs by luciferase reporter gene assay
Type: functional, organism-based
Condition info: Human immunodeficiency virus 1, RTMDR1, TZM-b1, 48 h
Mark each entry Satisfied if its EC50 sits below 0.5 µM, and Not satisfied for all others.

Past entries and their recorded results:
Structure | Category
CCc1cc(=O)c2c(CC)cc3c(c2o1)[C@@H](OC(=O)[C@@]12CC[C@@](C)(C(=O)O1)C2(C)C)[C@@H](OC(=O)[C@@]12CC[C@@](C)(C(=O)O1)C2(C)C)C(C)(C)O3 | Satisfied
Cc1oc2c3c(cc(C)c2c(=O)c1Br)OC(C)(C)[C@H](OC(=O)[C@@]12CC[C@@](C)(C(=O)O1)C2(C)C)[C@@H]3OC(=O)[C@@]12CC[C@@](C)(C(=O)O1)C2(C)C | Not satisfied
CNc1c(C)oc2c3c(ccc2c1=O)OC(C)(C)[C@H](OC(=O)[C@@]12CC[C@@](C)(C(=O)O1)C2(C)C)[C@@H]3OC(=O)[C@@]12CC[C@@](C)(C(=O)O1)C2(C)C | Satisfied
CCc1oc2c3c(ccc2c(=O)c1NC)OC(C)(C)[C@H](OC(=O)[C@@]12CC[C@@](C)(C(=O)O1)C2(C)C)[C@@H]3OC(=O)[C@@]12CC[C@@](C)(C(=O)O1)C2(C)C | Not satisfied

In the record for "Cc1cc(=O)c2c(C)cc3c(c2o1)[C@@H](OC(=O)[C@@]12CC[C@@](C)(C(=O)O1)C2(C)C)[C@@H](OC(=O)[C@@]12CC[C@@](C)(C(=O)O1)C2(C)C)C(C)(C)O3" , is EC50 less than 0.5 µM? Satisfied
